Provenance of the data: ChEMBL document CHEMBL1123654

experiment notes: Partition coefficient (logP)
Type: physicochemical
experimental setup: octanol/water
Checkbox rule: logP lower than 1 = Fulfilled; logP not lower than 1 = Not fulfilled.

>>> class_assignment("CC(=O)C1=CCN(NC(=O)c2ccccc2)CC1")
"Fulfilled"

Quick check: logP of "CC(=O)C1=CCCN(NC(=O)c2ccccc2)C1" under 1?
Fulfilled

----------
experiment notes: Partition coefficient (logP)
Assay type: physicochemical
experimental setup: octanol/water
Tag: satisfied if measured logP is not below 1, not satisfied if it is.

# example entries with known answers
>>> class_assignment("O=C(NN1CCC=C(CCCO)C1)c1ccccc1")
"satisfied"
>>> class_assignment("CC(=O)OCCCC1=CCCN(NC(=O)c2ccccc2)C1")
"satisfied"
>>> class_assignment("COC1=CCN(NC(=O)c2ccccc2)CC1")
"satisfied"
>>> class_assignment("COCCCC1=CCN(NC(=O)c2ccccc2)CC1")
"satisfied"

Turning now to a further compound:
Quick check: does "COC1=CCCN(NC(=O)c2ccccc2)C1" have logP greater than or equal to 1?
satisfied
